Experiment: in vitro
Details: African green monkey
Measured quantity: CC50

Example results:
| Molecule | Value reported |
| --- | --- |
| CC(C)=CCC[C@](C)(O)C1CC[C@@H]2C1CC[C@H]1C2(C)CC[C@H]2C(C)(C)C(=O)CCC12C (stereo partly drawn) | > 100 µM |
| CCOC(=O)c1cnc2ccc(OCC)cc2c1NCc1ccccc1 | > 100 µM |
| NC(=O)CCS(=O)(=O)c1ccc(Cl)cc1 [Compound C03455, 3-(4-Chlorobenzenesulfonyl)-propionamide] | > 100 µM |
| COc1cc(/C=C(/NC(=O)c2ccccc2)C(=O)NNC(=O)CN)ccc1O | 82 µM |
| N#Cc1c(N)nc(Sc2ccc(Cl)cc2)c(C#N)c1-c1cccs1 | > 100 µM |

## Task Recorded CC50 for CC1=C(C(=O)OCCc2ccccc2)C(c2ccccc2[N+](=O)[O-])C2=C(CCCC2=O)N1 (stereo not drawn) , please?
## Result > 100 µM

====

Assign CC50 to each entry below.
Experiment: in vitro
Details: hamster

| Compound | Value reported |
| --- | --- |
| CCOC(=O)c1cnc2ccc(OCC)cc2c1NCc1ccccc1 | 78 µM |

Batch request: CC50 per item, same order as input.
1. CC(C)=CCC[C@](C)(O)C1CC[C@@H]2C1CC[C@H]1C2(C)CC[C@H]2C(C)(C)C(=O)CCC12C (stereo partly drawn)
2. COc1cc(/C=C(/NC(=O)c2ccccc2)C(=O)NNC(=O)CN)ccc1O
3. CC1=C(C(=O)OCCc2ccccc2)C(c2ccccc2[N+](=O)[O-])C2=C(CCCC2=O)N1 (stereo not drawn)

## Result
> 100 µM
> 100 µM
> 100 µM

List reported CC50 for each of these compounds:
1. N#Cc1c(N)nc(Sc2ccc(Cl)cc2)c(C#N)c1-c1cccs1
2. NC(=O)CCS(=O)(=O)c1ccc(Cl)cc1 [Compound C03455, 3-(4-Chlorobenzenesulfonyl)-propionamide]

## Result
1: > 100 µM; 2: 87 µM
